Target: human PDE2A1 (Homo sapiens, UniProt O00408)
Construct: GST; purchased BPS Bioscience (San Diego, Calif.) 60020; host or cells: insect cells
Sequence (O00408 1-920 isoform O00408-2): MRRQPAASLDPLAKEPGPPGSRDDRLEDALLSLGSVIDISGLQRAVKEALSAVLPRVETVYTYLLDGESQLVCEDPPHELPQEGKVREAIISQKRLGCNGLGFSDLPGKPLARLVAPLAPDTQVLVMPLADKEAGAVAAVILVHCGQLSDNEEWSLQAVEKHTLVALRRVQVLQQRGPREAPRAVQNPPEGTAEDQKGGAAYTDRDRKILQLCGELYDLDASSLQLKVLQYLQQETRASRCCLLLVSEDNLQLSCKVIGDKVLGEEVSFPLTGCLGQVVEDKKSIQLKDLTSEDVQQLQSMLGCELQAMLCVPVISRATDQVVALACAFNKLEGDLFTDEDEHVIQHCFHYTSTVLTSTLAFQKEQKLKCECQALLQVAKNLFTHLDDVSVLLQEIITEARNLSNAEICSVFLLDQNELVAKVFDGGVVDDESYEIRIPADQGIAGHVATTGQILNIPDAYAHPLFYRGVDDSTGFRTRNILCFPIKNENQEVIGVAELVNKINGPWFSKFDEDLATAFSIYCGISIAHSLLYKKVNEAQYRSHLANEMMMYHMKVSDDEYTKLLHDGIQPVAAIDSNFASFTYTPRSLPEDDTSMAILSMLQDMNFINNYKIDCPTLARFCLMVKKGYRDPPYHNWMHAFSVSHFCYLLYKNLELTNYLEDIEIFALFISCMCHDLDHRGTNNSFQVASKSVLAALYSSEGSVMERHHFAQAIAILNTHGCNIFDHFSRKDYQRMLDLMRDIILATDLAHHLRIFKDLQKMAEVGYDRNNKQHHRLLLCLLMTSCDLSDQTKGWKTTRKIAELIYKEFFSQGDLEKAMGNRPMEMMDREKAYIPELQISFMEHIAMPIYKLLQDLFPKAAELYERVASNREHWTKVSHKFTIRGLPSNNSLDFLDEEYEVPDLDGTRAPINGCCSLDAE
Assay: IMAP FP PDE selectivity panel, human PDE2A1
Format: biochemical
Settings: Lab B; read-out: Human PDE2 Ki (nM) Lab B
RECORDED METRIC: Ki

Sample Cc1cc(N[C@@H](c2ccc(C(F)(F)F)cc2)[C@H](C)O)n2ncnc2n1 ; Ki observed: ~1790 nM

Sample Fc1cc(C2(Nc3cc(C4CC4)nc4ncnn34)CC2)ccc1C(F)(F)F ; Ki observed: 3.7 nM

Sample CC(C)(O)[C@@H](Nc1cc(C(F)(F)F)cc2nc(N)nn12)c1ccc(C(F)(F)F)cc1 ; Ki observed: 678 nM

Sample CC(C)c1cc(NC(c2ccc(OC(F)(F)F)cc2F)C(C)(C)O)n2ncnc2n1 (single isomer, unassigned) [Example 137] ; Ki observed: 436 nM

###

Kindly state Ki for each of the entries shown.
Biological target: human PDE2A1 (Homo sapiens, UniProt O00408)
Construct: GST; purchased BPS Bioscience (San Diego, Calif.) 60020; host or cells: insect cells
Assay: IMAP FP PDE selectivity panel, human PDE2A1
Type: biochemical
Settings: Lab B; read-out: Human PDE2 Ki (nM) Lab B

Sample CC(C)(O)[C@@H](Nc1cc(C(F)F)cc2ncnn12)c1ccc(C(F)(F)F)cc1 ; Ki observed: 20 nM

Sample CC(C)(C)c1cc(NC(c2ccc(C(F)(F)F)cc2)C(C)(C)O)n2ncnc2n1 (stereo in doubt) ; Ki observed: ~2340 nM

Sample CC(C)(O)C(Nc1cc(C(F)(F)F)nc2ncnn12)c1ccc(OC(F)(F)F)cc1F (single isomer, unassigned) [Example 171] ; Ki observed: ~1560 nM

All values here come from patent US10357481B2.
